molecular target: UniProt P29990; assay type: functional, Thailand/16681/1984
pIC50: −log10 of the molar value.
reported_endpoint: pIC50

[[record]]
compound_smiles = "O=C(NCC(F)(F)F)c1cc(Cl)c(F)cc1NS(=O)(=O)c1ccc(Oc2ccccc2Cl)cc1"
reported_endpoint = "pIC50"
result = 5.29


// next item, pIC50 requested
Ask: Would you kindly share the measured pIC50 for Cc1cc(C=O)c(O)c(C(=O)N2CC[C@H](CN(C)C)C2)c1 ?
Reply: < 4.00

---

target: Genome polyprotein (dengue virus type 2, UniProt P29990); format: functional, Thailand/16681/1984
Sequence (P29990 1346-1475 limits assumed): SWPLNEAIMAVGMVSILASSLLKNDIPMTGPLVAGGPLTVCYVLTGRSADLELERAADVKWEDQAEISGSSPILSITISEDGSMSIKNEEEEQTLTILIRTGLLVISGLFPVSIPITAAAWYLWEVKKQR
Sequence (P29990 1476-2093 limits assumed): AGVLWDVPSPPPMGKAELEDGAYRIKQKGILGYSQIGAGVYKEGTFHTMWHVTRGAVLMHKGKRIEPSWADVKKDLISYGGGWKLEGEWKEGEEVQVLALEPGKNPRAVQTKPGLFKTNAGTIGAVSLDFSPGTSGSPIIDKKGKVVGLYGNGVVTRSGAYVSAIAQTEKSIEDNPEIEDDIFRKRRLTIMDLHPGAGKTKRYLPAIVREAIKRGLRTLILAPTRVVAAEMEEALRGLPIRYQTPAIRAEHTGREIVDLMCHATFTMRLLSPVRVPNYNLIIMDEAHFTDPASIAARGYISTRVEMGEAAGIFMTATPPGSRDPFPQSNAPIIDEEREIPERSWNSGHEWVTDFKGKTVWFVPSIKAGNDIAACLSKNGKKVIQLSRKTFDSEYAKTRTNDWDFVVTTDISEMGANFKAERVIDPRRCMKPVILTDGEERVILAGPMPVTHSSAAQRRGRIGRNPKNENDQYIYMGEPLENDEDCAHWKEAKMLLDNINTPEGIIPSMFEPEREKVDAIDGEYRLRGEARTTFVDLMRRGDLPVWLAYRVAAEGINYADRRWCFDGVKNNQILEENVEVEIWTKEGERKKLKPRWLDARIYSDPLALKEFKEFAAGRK
pIC50: −log10 of the molar value.
reported_endpoint: pIC50

These solved cases illustrate the format of a correct answer.
[[record]]
compound_smiles = "O=C(N[C@@H](C(=O)Nc1cccnc1)c1ccc(OCc2ccccc2)cc1)OCc1ccccc1"
tested_on = "Genome polyprotein (dengue virus type 2, UniProt P29990)"
result = "< 4.00"

[[record]]
compound_smiles = "O=Cc1ccc(N2CCC(C(=O)N3CCN(c4cccc(O)c4)CC3)CC2)cc1"
tested_on = "Genome polyprotein (dengue virus type 2, UniProt P29990)"
result = 4.11


Ask: Returns the measured pIC50 for the input compound. Input: Cc1ccc(F)c2c1CCN(Cc1ccn(C3CNC3)c1)C2
Reply: < 4.00

Ask: Field request: pIC50 | item: CCn1c(=O)c(N2CC(S(=O)(=O)N3CCCC3)C2)nc2ccccc21
Reply: < 4.00

Ask: If you can, please state the reported pIC50 value of c1ccc2c(CN3CC(c4cscn4)C3)c[nH]c2c1 .
Reply: < 4.00

Ask: Using the record for NCc1cccc(NC(=O)[C@H]2CC(=O)Nc3ccc(Br)cc32)c1 , report its pIC50.
Reply: < 4.00

Ask: Quick check: pIC50 of NCc1cc(Cl)ccc1NS(=O)(=O)c1ccc(Oc2ccccc2Cl)cc1 ?
Reply: < 4.00

Ask: # lookup: pIC50 of CCn1c(=O)c(N2CC[C@H](CO)C2)nc2ccc(C(=O)NS(C)(=O)=O)cc21
Reply: < 4.00

Ask: Can you look up the measured pIC50 of NCc1cccc(NC(=O)c2cc(NC(=O)OCc3ccccc3)cc(C(F)(F)F)c2F)c1 for me?
Reply: < 4.00

Ask: // pIC50 lookup, key: O=Cc1ccc(N2CCC(C(=O)NCCc3ccccc3[N+](=O)[O-])CC2)cc1
Reply: 4.03

Ask: I'd like to know its pIC50. The compound in question is NCCc1csc2cc(C(=O)Nc3cc([C@H]4CCOC4)ccn3)ccc12
Reply: < 4.00

Ask: Consider the compound O=C(O)C[C@H]1CCCN1C(=O)c1cc(Cl)cc(NC(=O)OCc2ccccc2)c1 and give its measured pIC50.
Reply: < 4.00

Ask: Which pIC50 value is on record for C[C@H]1CC[C@H](CS(=O)(=O)N[C@H](C(=O)Nc2cccc(CN)c2)c2ccc(OCc3ccccc3)cc2)CC1 ?
Reply: 4.47

Ask: Reported pIC50, compound NCc1cc(NC(=O)c2cc(Cl)cc(NC(=O)OCc3ccccc3)c2)cc(C2=CC[C@H](C(=O)O)CC2)c1 : ____
Reply: < 4.00

---

biological target: Genome polyprotein (dengue virus type 2, UniProt P29990); format: functional, Thailand/16681/1984
pIC50: −log10 of the molar value.
reported_endpoint: pIC50

[[record]]
compound_smiles = "O=C(NCC(F)F)[C@H](Nc1cc2c(cc1Br)CNC2)c1cc(Cl)cc(C2CC2)c1"
result = "< 4.00"

[[record]]
compound_smiles = "CCn1ccnc(N2C[C@@H](O)[C@H](c3c[nH]c4ccccc34)C2)c1=O"
result = "< 4.00"

[[record]]
compound_smiles = "O=C(Nc1cc(Cl)cc(-c2cc(C(=O)O)n(-c3ccc(F)cc3)n2)c1)OCc1ccccc1"
result = 4.76

[[record]]
compound_smiles = "CN(C)Cc1cncc(NC(=O)[C@@H](NC(=O)OCc2ccccc2)c2ccc(OCc3ccccc3)cc2)c1"
result = "< 4.00"

[[record]]
compound_smiles = "NCc1cccnc1NS(=O)(=O)c1ccc(Oc2ccccc2Cl)cc1"
result = "< 4.00"

[[record]]
compound_smiles = "Cc1ccc(S(=O)(=O)CNC(=O)[C@H](Nc2ccc3c(c2)CNC3)c2cc(Cl)cc3[nH]ncc23)cc1"
result = "< 4.00"


Ask: Give its pIC50 value. Item: NC(=O)C1(N2CCCCC2)CCN(C(=O)C2CCN(c3ccc(C=O)cc3)CC2)CC1
Reply: < 4.60

Ask: Given the compound Cc1nc(N2CCOCC2)sc1CC(=O)Nc1cccc(CN)c1 , what is its reported pIC50?
Reply: < 4.00

Ask: What value of pIC50 has been reported for the following compound? CC(C)NC(=O)C[C@H]1NCc2cc(NC(=O)c3cc(Cl)cc4[nH]ncc34)ccc21
Reply: < 4.00
